Molecular target: T1, human Dectin-1 (biosensor tests of Tables 3, 4A and 9; construct not stated) (human, UniProt Q9BXN2 66-247, limits assumed)
T1 construct: also called hDectin-1
T1 sequence (looked up): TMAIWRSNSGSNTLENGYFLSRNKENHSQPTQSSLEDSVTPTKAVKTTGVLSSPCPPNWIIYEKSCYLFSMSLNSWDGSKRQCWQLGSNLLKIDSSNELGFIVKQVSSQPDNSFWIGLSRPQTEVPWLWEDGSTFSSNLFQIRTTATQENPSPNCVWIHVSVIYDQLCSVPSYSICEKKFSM
Assay: Octet response; also: time not given here
readout: X = 340
Number only, no unit.

Consider the reported X = 340 for these binders:
binder: 2M24A.1.6 hFab (Fab, V domains shown, Fab; also called 2M24.1.6) VH: QVQLVQSGAEVKKPGASVKVSCKSSGYTFTAYYIHWVRQAPGQGLEWMGWINPNSGDTNYAQKFQGRITMTRDTSISTAYLELSRLRSDDTAVFYCARNSGSYSFGYWGQGTLVTVSS VL: DIQMTQSPSSVSASVGDRVTITCRASQGISSWLAWYQQKPGKAPKLLIFGASSLQSGVPSRFSGSGSGTDFTLTVSSLQPEDFATYYCQQAFSFPFTFGPGTKVDIE
X = 340: 0.493

binder: 2M24A.1.13 hFab (Fab, V domains shown, Fab; also called 2M24.1.13) VH: QVQLVQSGAEVKKPGASVKVSCKSSGYTFTDYYIHWVRQAPGQGLEWMGWINPNSGDTNYAQKFQGRITMTRDTSISTAYLELSRLRSDDTAVFYCARASGSYSFGYWGQGTLVTVSS VL: DIQMTQSPSSVSASVGDRVTITCRASQGISSWLAWYQQKPGKAPKLLIFGASSLQSGVPSRFSGSGSGTDFTLTVSSLQPEDFATYYCQQAYSFPFTFGPGTKVDIE
X = 340: 0.028

binder: 2M24A.1.26 (Fab, V domains shown, Fab; also called 2M24.1.26) VH: QVQLVQSGAEVKKPGASVKVSCKSSGYTFTDYYIHWVRQAPGQGLEWMGWINPNSGDTNYAQKFQGRITMTRDTSISTAYLELSRLRSDDTAVFYCARNSGSYSFGYWGQGTLVTVSS VL: DIQMTQSPSSVSASVGDRVTITCRASQGISSWLAWYQQKPGKAPKLLIFGASSLQSGVPSRFSGSGSGTDFTLTVSSLQPEDFATYYCQQAYSAPFTFGPGTKVDIE
X = 340: 0.231

X = 340 reported for this binder 2M24A.1.12 hFab (Fab, V domains shown, Fab; also called 2M24.1.12) VH: QVQLVQSGAEVKKPGASVKVSCKSSGYTFTDYYIHWVRQAPGQGLEWMGWINPNSGATNYAQKFQGRITMTRDTSISTAYLELSRLRSDDTAVFYCARNSGSYSFGYWGQGTLVTVSS VL: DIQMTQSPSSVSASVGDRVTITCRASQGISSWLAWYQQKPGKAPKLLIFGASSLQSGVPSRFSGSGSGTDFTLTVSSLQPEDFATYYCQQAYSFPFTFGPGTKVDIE : 0.49

X = 340 reported for this binder 2M24A.1.8 hFab (Fab, V domains shown, Fab; also called 2M24.1.8) VH: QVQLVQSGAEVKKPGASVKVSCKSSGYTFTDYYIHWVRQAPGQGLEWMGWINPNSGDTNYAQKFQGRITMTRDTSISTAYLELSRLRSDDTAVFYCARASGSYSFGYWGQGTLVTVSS VL: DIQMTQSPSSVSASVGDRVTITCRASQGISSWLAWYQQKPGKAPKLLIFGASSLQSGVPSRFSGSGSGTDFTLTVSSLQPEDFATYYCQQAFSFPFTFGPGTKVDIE : 0.042
